Entries and their IC50
system.name: human CXCR3 (N-delta 4) (Homo sapiens)
Construct: CD8 leader (N); Flag tag; expressed in transfected cells; membrane preparation
Sequence (P49682 5-368 limits assumed): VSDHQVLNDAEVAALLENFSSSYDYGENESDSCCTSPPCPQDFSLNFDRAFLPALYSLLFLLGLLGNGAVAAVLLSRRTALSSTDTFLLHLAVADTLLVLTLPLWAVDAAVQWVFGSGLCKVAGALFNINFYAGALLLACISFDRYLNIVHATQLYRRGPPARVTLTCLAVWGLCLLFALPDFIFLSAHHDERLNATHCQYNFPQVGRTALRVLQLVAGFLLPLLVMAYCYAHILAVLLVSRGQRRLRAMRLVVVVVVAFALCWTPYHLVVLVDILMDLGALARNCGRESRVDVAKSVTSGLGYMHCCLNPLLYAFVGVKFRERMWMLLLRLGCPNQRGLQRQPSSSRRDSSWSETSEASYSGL
experiment.description: Human CXCR3 (N-delta 4) Scintillation Proximity Assay (SPA), [125I] IP-10 binding
measurement.setup: human CXCR3; Ba/F3-hCXCR3 (N-delta 4) membranes, 25 pM [125I] IP-10; read-out: IC50 rating (human)

Solved entries (count: 5):
CC[C@H]1CN(c2nc3ncccc3c(=O)n2C2CC2)CCN1C1CCN(C(=O)c2ccc(Cl)cc2)CC1
25 to 100 nM
CC[C@H]1CN(c2nc3ncccc3c(=O)n2C)CCN1C1CCN(C(=O)c2ccc(Cl)cc2)CC1
25 to 100 nM
CC[C@H]1CN(c2nc(Cl)c3nc[nH]c3n2)CCN1C1CCN(Cc2ccc(Cl)cc2F)CC1
> 100 nM
CC[C@H]1CN(c2nc3ncccc3c(=O)n2C2CC2)CCN1C1CCN(C(=O)c2ccc(Cl)nc2N)CC1
25 to 100 nM
CC[C@H]1CN(c2nc3ncccc3c(=O)n2C)CCN1C1CCN(Cc2ccc(Cl)cc2)CC1
< 25 nM

Consider the molecule shown here: "O=C(NCc1ccc(F)c(F)c1)c1cnc(N2CCN(C3CCN(Cc4ccc(Cl)cc4)CC3)CC2)nc1C(F)(F)F" What is its recorded IC50? > 100 nM

Consider the molecule shown here: "CC[C@H]1CN(c2nc3ncccc3c(=O)n2C2CC2)CCN1C1CCN(Cc2ccc(Cl)cc2F)CC1" What is its recorded IC50? < 25 nM

Consider the molecule shown here: "O=C(NCc1ccc(F)c(F)c1)c1cnc(N2CCN(C3CCN(C(=O)c4ccc(Cl)cc4)CC3)CC2)nc1C(F)(F)F" What is its recorded IC50? > 100 nM

Consider the molecule shown here: "CC[C@H]1CN(c2nc3ncccc3c(=O)n2C2CC2)CCN1C1CCN(Cc2ccc(F)c(F)c2)CC1" What is its recorded IC50? < 25 nM

Consider the molecule shown here: "CC[C@H]1CN(c2nc3ncccc3c(=O)n2C2CC2)CCN1C1CCN(Cc2ccc(OC(F)(F)F)cc2)CC1" What is its recorded IC50? < 25 nM

Consider the molecule shown here: "CC[C@H]1CN(c2nc3ncccc3c(=O)n2C)CCN1C1CCN(Cc2ccc(OC(F)(F)F)cc2)CC1" What is its recorded IC50? < 25 nM

Consider the molecule shown here: "CC[C@H]1CN(c2nc3ncccc3c(=O)n2C2CC2)CCN1C1CCN(Cc2ccc(Cl)c(F)c2)CC1" What is its recorded IC50? < 25 nM

Consider the molecule shown here: "CCNC(=O)c1cc(C)nc(N2CCN(C3CCN(Cc4ccc(Cl)cc4)CC3)[C@@H](CC)C2)n1" What is its recorded IC50? > 100 nM

Consider the molecule shown here: "CC[C@H]1CN(c2nc3ncccc3c(=O)n2C)CCN1C1CCN(C(=O)c2ccc(Cl)nc2N)CC1" What is its recorded IC50? > 100 nM

Consider the molecule shown here: "CC[C@H]1CN(c2nc3ncccc3c(=O)n2C2CC2)CCN1C1CCN(Cc2ccc(C#N)cc2)CC1" What is its recorded IC50? < 25 nM

====

Entries and their IC50
system.name: human CXCR3 (N-delta 4) (Homo sapiens)
Construct: CD8 leader (N); Flag tag; expressed in transfected cells; membrane preparation
experiment.description: Human CXCR3 (N-delta 4) Scintillation Proximity Assay (SPA), [125I] IP-10 binding
measurement.setup: human CXCR3; Ba/F3-hCXCR3 (N-delta 4) membranes, 25 pM [125I] IP-10; read-out: IC50 rating (human)

Solved entries (count: 2):
C[C@H]1CN(c2nccc(C(F)(F)F)n2)CCN1C1CCN(Cc2ccc(Cl)cc2)CC1
> 100 nM
CC[C@H]1CN(c2nc3ncccc3c(=O)n2C)[C@H](C)CN1C1CCN(C(=O)c2ccc(Cl)cc2)CC1
> 100 nM

The record that follows has no IC50 shown yet.
Consider the molecule shown here: "CC[C@H]1CN(c2nc3ncccc3c(=O)n2C2CC2)CCN1C1CCN(Cc2ccc(Cl)cc2)CC1" What is its recorded IC50? < 25 nM

Taken from patent US20120157466A1.
